- Assay System: RORγ (Homo sapiens, UniProt P51449)
- Sequence (P51449 269-508 limits assumed): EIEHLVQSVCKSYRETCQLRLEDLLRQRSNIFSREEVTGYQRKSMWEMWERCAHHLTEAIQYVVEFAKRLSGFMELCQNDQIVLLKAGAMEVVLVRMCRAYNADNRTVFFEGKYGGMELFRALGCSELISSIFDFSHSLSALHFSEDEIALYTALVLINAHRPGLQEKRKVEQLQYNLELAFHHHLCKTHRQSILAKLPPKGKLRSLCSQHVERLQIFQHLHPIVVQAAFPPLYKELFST
- Assay Details: Gal4-RORγ LBD / UAS luciferase cotransfection assay
- Assay Setup: Gal4 cotransfection
Assay Readout: IC50 (nM)
Enter your answer as a number in nM; do not include the unit.

Please list IC50 recorded for the molecule OC(c1ccc(-c2ccc(CN3CCN(Cc4ccncc4)CC3)cc2)cc1)(C(F)(F)F)C(F)(F)F
400

###

- Assay System: LXR (Homo sapiens)
- Sequence (Q13133 209-447 limits assumed): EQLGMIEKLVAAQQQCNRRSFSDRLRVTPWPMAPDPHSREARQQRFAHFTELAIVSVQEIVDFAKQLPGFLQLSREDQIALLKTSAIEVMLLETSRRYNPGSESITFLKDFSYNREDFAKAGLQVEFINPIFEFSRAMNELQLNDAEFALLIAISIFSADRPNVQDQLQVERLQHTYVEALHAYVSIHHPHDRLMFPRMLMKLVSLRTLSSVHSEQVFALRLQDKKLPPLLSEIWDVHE
- Assay Details: Gal4-LXRα / UAS luciferase cotransfection assay
- Assay type: cell-based
- Assay Setup: 10 μM
Assign LXR activation, fold change over DMSO to each entry below.
Enter your answer as a number in fold change over DMSO; do not include the unit.

Find LXR activation, fold change over DMSO for O=C(c1ccccc1)N1CCN(Cc2ccc(-c3ccc(C(O)(C(F)(F)F)C(F)(F)F)cc3)cc2)CC1 [Compound 26] on LXR (Homo sapiens) and write it down.
2

Find LXR activation, fold change over DMSO for OC(c1ccc(-c2ccc(CN3CCN(Cc4cncs4)CC3)cc2)cc1)(C(F)(F)F)C(F)(F)F [Compound 114] on LXR (Homo sapiens) and write it down.
0.63

Find LXR activation, fold change over DMSO for OC(c1ccc(-c2ccc(CN3CCN(C4CC4)CC3)cc2)cc1)(C(F)(F)F)C(F)(F)F [Compound 17] on LXR (Homo sapiens) and write it down.
0.75

Find LXR activation, fold change over DMSO for OC(c1ccc(-c2ccc(CN3CCN(Cc4c(F)cncc4F)CC3)cc2)cc1)(C(F)(F)F)C(F)(F)F [Compound 101] on LXR (Homo sapiens) and write it down.
4

Find LXR activation, fold change over DMSO for OC(c1ccc(-c2ccc(CN3CCN(CCc4ccncc4)CC3)cc2)cc1)(C(F)(F)F)C(F)(F)F [Compound 41] on LXR (Homo sapiens) and write it down.
1

Find LXR activation, fold change over DMSO for Cc1cc(-c2ccc(C(O)(C(F)(F)F)C(F)(F)F)cc2)ccc1CN1CCN(Cc2ccncc2)CC1 [Compound 94] on LXR (Homo sapiens) and write it down.
0.8

Find LXR activation, fold change over DMSO for O=C(Cc1ccccc1)N1CCN(Cc2ccc(-c3ccc(C(O)(C(F)(F)F)C(F)(F)F)cc3)cc2)CC1 [Compound 27] on LXR (Homo sapiens) and write it down.
0.8

Find LXR activation, fold change over DMSO for OC(c1ccc(-c2ccc(CN3CCN(Cc4cscn4)CC3)cc2)cc1)(C(F)(F)F)C(F)(F)F [Compound 115] on LXR (Homo sapiens) and write it down.
0.76

###

- Assay System: GST-RORγ (Homo sapiens)
- Construct: 1 μg of GST-RORγ-LBD, 5 nM of [3H]T1317 as radioligand
- Assay Details: RORγ scintillation proximity (SPA) radioligand binding assay, displacement of [3H]-T0901317
- Assay Setup: 10 μM compound; read-out: RORγ SPA % bound = % radiolabel bound
Assign remaining activity at 10 µM to each entry below.
Enter your answer as a number in %; do not include the unit.

Please list remaining activity at 10 µM recorded for the compound OC(c1ccc(-c2ccc(CN3CCN(Cc4cncs4)CC3)cc2)cc1)(C(F)(F)F)C(F)(F)F
50

Please list remaining activity at 10 µM recorded for the compound COc1cc(-c2ccc(CN3CCN(Cc4ccncc4)CC3)cc2)ccc1C(O)(C(F)(F)F)C(F)(F)F
40

Please list remaining activity at 10 µM recorded for the compound OC(c1ccc(-c2ccc(CN3CCC(Cc4ccc5c(c4)OCO5)CC3)cc2)cc1)(C(F)(F)F)C(F)(F)F
35

Please list remaining activity at 10 µM recorded for the compound OC(c1ccc(-c2ccc(CN3CCN(Cc4ccncc4Cl)CC3)cc2)cc1)(C(F)(F)F)C(F)(F)F
25

###

- Assay System: RORα (Homo sapiens)
- Construct: expressed in transfected cells; host or cells: HEK293T
- Sequence (P35398 272-510 limits assumed): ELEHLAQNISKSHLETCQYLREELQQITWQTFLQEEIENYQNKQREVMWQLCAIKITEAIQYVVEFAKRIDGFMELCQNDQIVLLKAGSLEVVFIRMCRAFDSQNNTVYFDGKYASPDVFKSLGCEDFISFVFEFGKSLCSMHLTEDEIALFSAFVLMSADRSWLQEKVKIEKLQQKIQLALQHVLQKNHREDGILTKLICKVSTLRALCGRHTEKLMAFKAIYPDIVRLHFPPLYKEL
- Assay Details: Gal4-RORα LBD / UAS luciferase cotransfection assay
- Assay type: cell-based
- Assay Setup: 10 μM
Assay Readout: RORα repression, fold change over DMSO (fold change over DMSO)
Enter your answer as a number in fold change over DMSO; do not include the unit.

Please list RORα repression, fold change over DMSO recorded for the compound CCC(=O)N1CCN(Cc2ccc(-c3ccc(C(O)(C(F)(F)F)C(F)(F)F)cc3)cc2)CC1 [Compound 25]
0.7

Please list RORα repression, fold change over DMSO recorded for the compound OC(c1ccc(-c2ccc(CN3CCN(Cc4ccncc4)CC3)c(F)c2)cc1)(C(F)(F)F)C(F)(F)F [Compound 98]
0.8

Please list RORα repression, fold change over DMSO recorded for the compound OC(c1ccc(-c2ccc(CN3CCN(Cc4cc5cc(F)ccc5[nH]4)CC3)cc2)cc1)(C(F)(F)F)C(F)(F)F [Compound 20]
0.1

Please list RORα repression, fold change over DMSO recorded for the compound COc1cc(-c2ccc(C(O)(C(F)(F)F)C(F)(F)F)cc2)ccc1CN1CCN(Cc2ccncc2)CC1 [Compound 97]
0.5

Please list RORα repression, fold change over DMSO recorded for the compound OC(c1ccc(-c2ccc(CN3CCC(Nc4ccncc4)CC3)cc2)cc1)(C(F)(F)F)C(F)(F)F [Compound 104]
0.9

Please list RORα repression, fold change over DMSO recorded for the compound OC(c1ccc(-c2ccc(CN3CCN(Cc4ccncc4)CC3)cc2)cc1)(C(F)(F)F)C(F)(F)F [Compound 1]
1

Please list RORα repression, fold change over DMSO recorded for the compound Cc1cc(CN2CCN(Cc3ccc(-c4ccc(C(O)(C(F)(F)F)C(F)(F)F)cc4)cc3)CC2)ccn1 [Compound 43]
0.6

Please list RORα repression, fold change over DMSO recorded for the compound OC(c1ccc(-c2ccc(CN3CCN(Cc4ccncc4Cl)CC3)cc2)cc1)(C(F)(F)F)C(F)(F)F [Compound 92]
0.7

Please list RORα repression, fold change over DMSO recorded for the compound OCCN1CCN(Cc2ccc(-c3ccc(C(O)(C(F)(F)F)C(F)(F)F)cc3)cc2)CC1 [Compound 2]
1.3

Please list RORα repression, fold change over DMSO recorded for the compound OC(c1ccc(-c2ccc(CN3CCN(Cc4cncs4)CC3)cc2)cc1)(C(F)(F)F)C(F)(F)F [Compound 114]
0.79

Please list RORα repression, fold change over DMSO recorded for the compound CCCNC(=O)N1CCN(Cc2ccc(-c3ccc(C(O)(C(F)(F)F)C(F)(F)F)cc3)cc2)CC1 [Compound 22]
0.5

Please list RORα repression, fold change over DMSO recorded for the compound OC(c1ccc(-c2ccc(CN3CCN(CCc4ccccc4)CC3)cc2)cc1)(C(F)(F)F)C(F)(F)F [Compound 11]
0.5

Please list RORα repression, fold change over DMSO recorded for the compound OC(c1ccc(-c2ccc(CN3CCN(Cc4ccnc(Br)c4)CC3)cc2)cc1)(C(F)(F)F)C(F)(F)F [Compound 40]
0.1

Please list RORα repression, fold change over DMSO recorded for the compound O=C(C1CCCO1)N1CCN(Cc2ccc(-c3ccc(C(O)(C(F)(F)F)C(F)(F)F)cc3)cc2)CC1 (stereo not drawn) [Compound 16]
0.8

Please list RORα repression, fold change over DMSO recorded for the compound OC(c1ccc(-c2ccc(CN3CCN(Cc4ccncc4)CC3)cc2F)cc1)(C(F)(F)F)C(F)(F)F [Compound 95]
0.5

###

- Assay System: GST-RORγ (Homo sapiens)
- Construct: 1 μg of GST-RORγ-LBD, 5 nM of [3H]T1317 as radioligand
- Assay Details: RORγ scintillation proximity (SPA) radioligand binding assay, displacement of [3H]-T0901317
- Assay Setup: 1 μM compound (Table 2D); read-out: RORγ SPA % bound = % radiolabel bound
Rule: remaining activity at 1 µM below 70% gives YES. Equal to or above 70% gives NO.

Is remaining activity at 1 µM of OC(c1ccc(-c2ccc(CN3CCN(Cc4ccncc4)CC3)cc2C(F)(F)F)cc1)(C(F)(F)F)C(F)(F)F strictly below 70%?
NO

Is remaining activity at 1 µM of CC(C)Oc1cc(C(O)(C(F)(F)F)C(F)(F)F)ccc1-c1ccc(CN2CCN(Cc3ccncc3)CC2)cc1 strictly below 70%?
NO

Is remaining activity at 1 µM of OC(c1ccc(-c2ccc(CCN3CCN(Cc4ccncc4)CC3)cc2)cc1)(C(F)(F)F)C(F)(F)F strictly below 70%?
YES

Is remaining activity at 1 µM of OC(c1ccc(-c2cccc(CC3CCCN(Cc4ccncc4)C3)c2)cc1)(C(F)(F)F)C(F)(F)F (stereo not shown) strictly below 70%?
YES

Is remaining activity at 1 µM of CC(Cc1ccc(-c2ccc(C(O)(C(F)(F)F)C(F)(F)F)cc2)cc1)N1CCN(Cc2ccncc2)CC1 (stereo not shown) strictly below 70%?
NO

Is remaining activity at 1 µM of OC(c1ccc(-c2ccc(CN3CCN(Cc4ccc5cc[nH]c5c4)CC3)cc2)cc1)(C(F)(F)F)C(F)(F)F strictly below 70%?
NO

Is remaining activity at 1 µM of O=C(Cc1ccc(-c2ccc(C(O)(C(F)(F)F)C(F)(F)F)cc2)cc1)N1CCN(Cc2ccncc2)CC1 strictly below 70%?
NO

Is remaining activity at 1 µM of OC(c1ccc(-c2ccc(CN3CCN(Cc4ccc5nc[nH]c5c4)CC3)cc2)cc1)(C(F)(F)F)C(F)(F)F strictly below 70%?
NO

Is remaining activity at 1 µM of CCCCC(=O)N1CCN(Cc2ccc(-c3ccc(C(O)(C(F)(F)F)C(F)(F)F)cc3)cc2)CC1 strictly below 70%?
YES

Is remaining activity at 1 µM of CCC(c1ccc(-c2ccc(C(O)(C(F)(F)F)C(F)(F)F)cc2)cc1)N1CCN(Cc2ccncc2)CC1 (stereo not shown) strictly below 70%?
NO

Is remaining activity at 1 µM of O=C(Cc1c[nH]cn1)N1CCN(Cc2ccc(-c3ccc(C(O)(C(F)(F)F)C(F)(F)F)cc3)cc2)CC1 strictly below 70%?
NO

Is remaining activity at 1 µM of OC(c1ccc(-c2ccc(CC3CCN(Cc4ccncc4)CC3)cc2)cc1)(C(F)(F)F)C(F)(F)F strictly below 70%?
YES

Is remaining activity at 1 µM of N#Cc1cc(-c2ccc(C(O)(C(F)(F)F)C(F)(F)F)cc2)ccc1CN1CCN(Cc2ccncc2)CC1 strictly below 70%?
NO
